assay: Solubility of methadone in different solvents; type: physicochemical; conditions: organic solvent or mixture; PEG - 400, 3 hour
endpoint: solubility at 3 h
Answer format: value, then unit.

Documented solubility at 3 h of CCC(=O)C(CC(C)N(C)C)(c1ccccc1)c1ccccc1 (stereo not shown) : 39.7 mg/mL

* * *

experiment: Solubility of methadone in different solvents; format: physicochemical; settings: oil or lipid; Mineral oil, 24 hour
endpoint: solubility at 24 h (mg/mL)
Give a bare numeral; the unit mg/mL is implied.

Documented solubility at 24 h of CCC(=O)C(CC(C)N(C)C)(c1ccccc1)c1ccccc1 (stereo not shown) [Methadone, 6-dimethylamino-4,4-diphenyl-3-hepatone] : 40.4

* * *

experiment: Solubility of methadone in different solvents; type: physicochemical; details: organic solvent or mixture; DEET (97%), 24 hour
endpoint: solubility at 24 h (mg/mL)
Give a bare numeral; the unit mg/mL is implied.

Documented solubility at 24 h of CCC(=O)C(CC(C)N(C)C)(c1ccccc1)c1ccccc1 (stereo not shown) [Methadone, 6-dimethylamino-4,4-diphenyl-3-hepatone] : 137

* * *

experiment: Solubility of methadone in different solvents; format: physicochemical; conditions: organic solvent or mixture; PEG - 400, 24 hour
endpoint: solubility at 24 h (mg/mL)
Give a bare numeral; the unit mg/mL is implied.

Documented solubility at 24 h of CCC(=O)C(CC(C)N(C)C)(c1ccccc1)c1ccccc1 (stereo not shown) : 38.8

* * *

assay: Study 2: concentrations of methadone in rat plasma, topical administration versus intravenous injection; type: in vivo; conditions: rat, in vivo, 0.2 mL of 23.9% methadone solution; Study 2 Group B: topical dorsal flank, 1 × 1 cm gauze pad with 0.2 mL Test Article 2 (Methadone-Diisopropyl Adipate Solution 23.9%); 90 min; individual rats B1-B3; read-out: Concentrations of Methadone in Rat Plasma Samples
endpoint: concentration at 90 min (ng/mL)
Give a bare numeral; the unit ng/mL is implied.

Documented concentration at 90 min of CCC(=O)C(CC(C)N(C)C)(c1ccccc1)c1ccccc1 (stereo not shown) : 24.8

* * *

experiment: Study 2: concentrations of methadone in rat plasma, topical administration versus intravenous injection; type: in vivo; details: rat, in vivo, 0.2 mL of 23.9% methadone solution; Study 2 Group B: topical dorsal flank, 1 × 1 cm gauze pad with 0.2 mL Test Article 2 (Methadone-Diisopropyl Adipate Solution 23.9%); 1440 min; individual rats B1-B3; read-out: Concentrations of Methadone in Rat Plasma Samples
endpoint: concentration at 1440 min

Documented concentration at 1440 min of CCC(=O)C(CC(C)N(C)C)(c1ccccc1)c1ccccc1 (stereo not shown) : 116 ng/mL
